Literature survey of pIC50 (system: Tissue-type plasminogen activator (Homo sapiens, UniProt P00750)).
Remember, pIC50 is on a log scale: it is -log10 of the molar concentration.

# `CC(=N)N1CCC(Oc2ccc3c(c2)n(Cc2ccc4ccc(C(=N)N)cc4c2)c(=O)n3C)CC1` with Tissue-type plasminogen activator (Homo sapiens, UniProt P00750): pIC50 is 4.44

The measured pIC50 that `CC(=N)N1CCC(Oc2ccc3c(c2)/C(=C/c2ccccc2)C(=O)N3Cc2ccc3ccc(C(=N)N)cc3c2)CC1` showed for Tissue-type plasminogen activator (Homo sapiens, UniProt P00750) is 4.58

I looked up `CC(C)n1c(=O)n(Cc2ccc3ccc(C(=N)N)cc3c2)c2cc(OC3CCN(C(=N)N)CC3)ccc21` and its pIC50 for Tissue-type plasminogen activator (Homo sapiens, UniProt P00750) was 4.03

Observed pIC50 on Tissue-type plasminogen activator (Homo sapiens, UniProt P00750), entry `CC1(C)C(=O)N(Cc2ccc3ccc(C(=N)N)cc3c2)c2ccc(OC3CCN(C(=N)N)CC3)cc21` , equals 4.71

The compound CC(=N)N1CCC(Oc2ccc3c(c2)C(CC(=O)O)C(=O)N3Cc2ccc3ccc(C(=N)N)cc3c2)CC1 (stereo not shown) on Tissue-type plasminogen activator (Homo sapiens, UniProt P00750): pIC50 was 4.43

Record `CC(=N)N1CCC(Oc2ccc3c(c2)C=CS(=O)(=O)N3Cc2ccc3ccc(C(=N)N)cc3c2)CC1` ; system Tissue-type plasminogen activator (Homo sapiens, UniProt P00750); pIC50 = 5.80

Entry CC(C)C1C(=O)N(Cc2ccc3ccc(C(=N)N)cc3c2)c2ccc(OC3CCN(C(=N)N)CC3)cc21 (stereo not shown) under Tissue-type plasminogen activator (Homo sapiens, UniProt P00750) had pIC50 of 4.55
